# assayedSystem: T1, mgp130 ECD antigen (mouse, UniProt Q00560 23-617)
# T1 construct: Antigen of biopanning and PE-ELISA; The immunogen was an ECD-human IgG1 hinge-Fc fusion; also called ECD of mouse gp130; ngp130 ECD antigen (so in the source)
# T1 sequence: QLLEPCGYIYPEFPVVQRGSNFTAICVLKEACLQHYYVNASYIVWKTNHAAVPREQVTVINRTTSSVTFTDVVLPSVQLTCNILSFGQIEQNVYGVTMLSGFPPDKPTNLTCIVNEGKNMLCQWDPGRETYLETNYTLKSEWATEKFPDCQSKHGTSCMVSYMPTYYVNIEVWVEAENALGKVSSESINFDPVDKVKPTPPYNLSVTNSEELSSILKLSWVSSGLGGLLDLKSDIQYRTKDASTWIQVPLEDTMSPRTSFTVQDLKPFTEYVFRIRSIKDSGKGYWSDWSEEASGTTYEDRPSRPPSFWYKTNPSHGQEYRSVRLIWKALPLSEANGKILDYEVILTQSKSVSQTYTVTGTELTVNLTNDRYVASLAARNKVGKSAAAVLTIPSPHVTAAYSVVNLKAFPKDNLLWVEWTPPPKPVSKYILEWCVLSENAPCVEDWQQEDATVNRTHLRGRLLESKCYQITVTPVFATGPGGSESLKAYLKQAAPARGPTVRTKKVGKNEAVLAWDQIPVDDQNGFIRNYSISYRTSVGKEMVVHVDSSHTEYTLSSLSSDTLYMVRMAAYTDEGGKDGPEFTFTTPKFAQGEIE
# test: periplasmic extract ELISA (PE-ELISA) of phage clones
parameterMeasured: binding result

mgp130_VHH31 (VHH, As periplasmic extract of the phage clone; also called anti-mouse gp130 VHH; not shown: HA/His tag of the pMECS phagemid) VHH: QVQLQESGGGSVQAGGSLRLSCVISGFTYRQTFMGWFRQVVGKEREGVAAISTGGGSTVYADSVKGRFTISQDSSKDTVYLEMNGLKLEDTGMYYCAASTVITSESINRNLYQYWGQGTQVTVSS | binds
mgp130_VHH13 (VHH, As periplasmic extract of the phage clone; also called anti-mouse gp130 VHH; not shown: HA/His tag of the pMECS phagemid) VHH: QVQLQESGGGSVQPGGSLRLSCAASGFTFSTYDMSWVRQAPGKGLEWVSTINYSGSSTYYVDSVLGRFTIARDNAKNTLYLQMNNLQTEDTAVYYCASVKERRSNGHPIVFGDRGQGTQVTVSS | binds
